- Tested Target: Tyrosyl-DNA phosphodiesterase 1 (Homo sapiens) (UniProt Q9NUW8)
- Sequence (Q9NUW8 whole entry, looked up): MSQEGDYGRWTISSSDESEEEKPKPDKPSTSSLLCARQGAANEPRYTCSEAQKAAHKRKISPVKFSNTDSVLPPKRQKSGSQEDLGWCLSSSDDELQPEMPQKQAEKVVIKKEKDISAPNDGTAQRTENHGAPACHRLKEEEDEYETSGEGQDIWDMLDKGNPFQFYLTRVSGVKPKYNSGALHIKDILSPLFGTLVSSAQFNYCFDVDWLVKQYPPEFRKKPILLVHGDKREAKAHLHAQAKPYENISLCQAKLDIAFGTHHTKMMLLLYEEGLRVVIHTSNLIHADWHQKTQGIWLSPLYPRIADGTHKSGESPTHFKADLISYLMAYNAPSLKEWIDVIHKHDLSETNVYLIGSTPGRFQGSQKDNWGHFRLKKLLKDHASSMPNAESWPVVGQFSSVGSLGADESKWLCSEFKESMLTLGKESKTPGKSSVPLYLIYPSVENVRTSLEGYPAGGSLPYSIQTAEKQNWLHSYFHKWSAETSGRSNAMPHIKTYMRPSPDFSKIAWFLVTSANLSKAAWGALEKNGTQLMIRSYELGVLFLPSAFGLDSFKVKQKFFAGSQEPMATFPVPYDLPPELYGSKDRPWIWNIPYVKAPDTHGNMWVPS
- Experiment Summary: qHTS Assay for Inhibitors of Tyrosyl-DNA Phosphodiesterase (TDP1); also: nearly all actives have a fitted effect of over 40% in size
- Condition Label: recombinant TDP1, AlphaScreen DNA substrate cleavage; series mostly up to 130 µM
- Method: NIH Molecular Libraries Probe Production Network [MLPCN] NIH Chemical Genomics Center [NCGC] Assay Provider: Yves Pommier and Christophe Marchand, National Cancer Institute Assay Title: qHTS Assay for Inhibitors of Tyrosyl-DNA Phosphodiesterase (TDP1) […] 3 ul of Tdp1 enzyme is dispensed to 1536-well Kalypsys black solid bottom plates. […] The detection is then performed on a PerkinElmer Envision reader.
Screen size: about 350,000 compounds; about 990 (0.28%) were called active. About 2% were inconclusive and are not listed. Shown is part of a subset that was picked to be rich in actives.
Assay Endpoint: outcome

Completed entries (count: 5):
Could you tell me which outcome is on file for N#CN1CCC(NS(=O)(=O)c2cccc(F)c2)C1 (stereo unspecified) ?
inactive

What value of outcome has been reported for the following compound? CCC(=O)Nc1cccc(-c2nc3cc(C)ccc3o2)c1
inactive

Value lookup for outcome; key = COc1cc(C(=O)NCCc2csc3nc(-c4ccccc4C)nn23)cc(OC)c1OC
inactive

What value of outcome has been recorded for this entry: Cc1ccc(NC(=O)CCCn2c(=O)c3cccn3c3ccccc32)cc1Cl
inactive

Entry under review: Cc1ccc(C(=O)NC2CCN(C#N)CC2)cc1 . Reported outcome?
inactive

Now look at this one.
Tell me the measured outcome of N#Cc1nc(Nc2cc(F)cc(Cl)c2)nc(NC2CCCC2)n1 , please.
inactive

====

- Tested Target: Tyrosyl-DNA phosphodiesterase 1 (Homo sapiens)
- Experiment Summary: qHTS Assay for Inhibitors of Tyrosyl-DNA Phosphodiesterase (TDP1); also: nearly all actives have a fitted effect of over 40% in size; also: potency is read from the fitted curve at half-maximal effect
- Condition Label: recombinant TDP1, AlphaScreen DNA substrate cleavage; series mostly up to 130 µM
Out of some 350,000 compounds screened, about 990 (0.28%) were called active. About 2% were inconclusive and are not listed. This is one part of a sample in which actives are shown more often than they occur.
Assay Endpoint: Potency

Some molecules with known Potency results, for comparison:
Item under review: Cc1cc(=O)oc2cc(NC(=O)C(C)Oc3ccccc3)ccc12 (stereo not given) . Reported Potency?
56.2 µM (active)

Give the measured Potency of O=C(COc1ccccc1Cl)Nc1ccc2nc(SCC(=O)N3CCCC3)sc2c1 .
inactive

What does the record list as Potency for Cc1ccc(S(=O)(=O)NC(N)=NCCC[C@@H](NC(=O)CNC(=O)c2ccccc2)C(=O)Nc2cc(C(F)(F)F)ccc2Cl)cc1 ?
inactive

Return reported Potency; argument: Cc1noc(C)c1-c1ccc2ncnc(NCc3ccc(F)c(F)c3)c2c1
inactive

Next molecule, Potency to be filled in.
What measured Potency goes with Cc1cc(=O)oc2cc(OC(C)C(=O)Nc3ccc(N4CCOCC4)cc3)ccc12 (stereo not given) ?
inactive

====

- Tested Target: Tyrosyl-DNA phosphodiesterase 1 (Homo sapiens) (UniProt Q9NUW8)
- Experiment Summary: qHTS Assay for Inhibitors of Tyrosyl-DNA Phosphodiesterase (TDP1); also: nearly all actives have a fitted effect of over 40% in size; also: potency is read from the fitted curve at half-maximal effect
- Condition Label: recombinant TDP1, AlphaScreen DNA substrate cleavage; series mostly up to 130 µM
Among all 350,000 compounds or so, about 990 (0.28%) were called active. Not shown: some 2% with an inconclusive outcome. The list comes from a sample in which actives are over-represented; it also holds close analogues and randomly drawn compounds.
Assay Endpoint: Potency

Some solved cases for reference:
I have this molecule here, Cc1ccc(CCNC(=O)c2ccc(CS(=O)(=O)Cc3cccc(C)c3)o2)cc1 , and I need its recorded Potency.
inactive

Please look up its Potency: Cc1ccc2nc(-c3ccncc3)cc(C(=O)Nc3ccc(OC(F)F)cc3)c2c1
50.1 µM (active)

Please give the measured Potency for this molecule: COc1cccc(C2c3c(ncn(-c4cccc(Br)c4)c3=N)Oc3ccc4ccccc4c32)c1 (stereo not given)
inactive

I would be grateful if you could share the reported Potency for CCN1CCN(c2cc(C)c3cc(NC(=O)c4cc(Cl)ccc4OC)ccc3n2)CC1 .
inactive

What value of measured Potency is listed for N#Cc1c(N2CCCCC2)nc(N)c2c(N)nc(SCC(=O)O)cc12 ?
50.1 µM (active)

Would you kindly share the measured Potency for Cc1cc(C)c(C#N)c(N2CCC(C(N)=O)CC2)n1 ?
inactive

New cases:
Could you tell me which Potency is on file for Cc1cc(C)cc(C(=O)NC2C(=O)N3C(C(=O)O)=C(CSc4nnc(C)s4)CSC23)c1 (stereo not given) ?
inactive

// lookup Potency for O=S(=O)(c1cccc(C(F)(F)F)c1)N1CCN(c2nc(-c3cccs3)nc3ccccc23)CC1
inactive

Which Potency reading was recorded for the molecule CCOC(=O)c1scc(-c2ccccc2)c1S(=O)(=O)Nc1ccccc1F ?
inactive

What value of Potency has been recorded for this entry: CN(CCOc1ccccc1)C(=O)c1cc(-c2ccco2)nc2ccccc12
inactive

Please give the measured Potency for this molecule: COc1ccc(S(=O)(=O)NCC(c2ccc(N(C)C)cc2)N2CCc3ccccc32)cc1OC (stereo not given)
inactive

# Potency lookup, item CC(C)COC(=O)c1ccc(NC(=O)C2C3C=CC(C3)C2C(=O)O)cc1 (stereo not given)
inactive

Record request: Potency value, item CN(CCOc1ccccc1)C(=O)c1cc(COc2c(F)cccc2F)on1
inactive

What measured Potency goes with CC(=O)NC(c1cccs1)c1cc(Cl)c2cccnc2c1O (stereo not given) ?
inactive

So what's the measured Potency for this one? C=CCn1c(CSc2nc3ccccc3s2)nnc1SCC(=O)NCc1ccco1
50.1 µM (active)

Any idea what Potency was measured for CC(=O)NS(=O)(=O)c1ccc(NC(=O)C2C3C=CC(C3)C2C(=O)O)cc1 (stereo not given) ?
79.4 µM (active)

Record request: Potency value, item O=C1CCCC2=C1[C@@]1(CCC(c3ccccc3)C1)N=C(Nc1nc3ccccc3o1)N2 (stereo not given in full)
inactive

What value of Potency has been reported for the following molecule? CNS(=O)(=O)c1cccc(C(=O)OCC(=O)N2c3ccccc3NC(=O)C2(C)C)c1
31.6 µM (active)

# input molecule: O=C1c2ccccc2C(=O)N1c1ccc(S(=O)(=O)N2CCOCC2)c2ccccc12 ; wanted: its Potency
inactive

// returns reported Potency for input Cc1nn(-c2ccc(N3CCCCC3)nn2)c(C)c1CCC(=O)NCc1ccc(F)cc1
inactive

Dear colleague, I am looking for the recorded Potency of the following molecule: O=C(CNC(=O)c1ccccc1)OC(C(=O)Nc1cc([N+](=O)[O-])ccc1F)c1ccccc1 (stereo not given)
inactive

Entry O=C(NCc1ccc2c(c1)CCN2C(=O)c1ccccc1)Nc1cc(F)ccc1F has what Potency?
inactive

# query: Potency of entry Cc1ccc(-c2nn3c(=O)cc(CN4CCN(C(=O)Nc5cccc(C(F)(F)F)c5)CC4)nc3s2)cc1
inactive

Entry Cc1cc(C(=O)OCC(=O)N2c3ccccc3NC(=O)C2(C)C)c(C)n1-c1ccccc1 has what Potency?
inactive

Name the recorded Potency for CN1C(=O)/C(=C/c2ccco2)SC1=Nc1cccc(C(=O)O)c1 .
25.1 µM (active)

State the recorded Potency for this entry: O=C(CSc1nc2ccc(Nc3nc(N4CCOCC4)nc(N4CCOCC4)n3)cc2s1)NCc1ccco1
inactive

Which value of Potency has been reported for Cc1ccc2nc(-c3ccncc3)cc(C(=O)Nc3ccncc3)c2c1 in the records?
inactive

====

- Tested Target: Tyrosyl-DNA phosphodiesterase 1 (Homo sapiens)
- Experiment Summary: qHTS Assay for Inhibitors of Tyrosyl-DNA Phosphodiesterase (TDP1); also: nearly all actives have a fitted effect of over 40% in size
- Condition Label: recombinant TDP1, AlphaScreen DNA substrate cleavage; series mostly up to 130 µM
The campaign covered roughly 350,000 compounds. About 990 (0.28%) were called active. Roughly 2% stayed inconclusive and do not appear here. The call rests on the fitted dose curve; in most records, active means well fitted inhibition curve with a large enough effect; inconclusive means small, poorly fitted or top-dose-only effect; inactive means no such curve, though single readings can be large or run the other way. The full list was thinned out, with actives kept by preference.
The reply should be one of these categories: active, inactive

// return assay outcome for Oc1ccc(/C=C/c2c(F)cccc2F)c2cccnc12
inactive

What classification did O=C(CNC(=O)c1ccc(Cl)cc1Cl)OC(C(=O)Nc1cc(C(F)(F)F)ccc1Cl)c1ccccc1 (stereo not drawn) end up with in this test?
inactive

# outcome recorded in this test, key = N#CN1CCC(NC(=O)c2ccc(F)cc2)CC1
inactive

Test call for this compound, please: COC(=O)c1ccccc1S(=O)(=O)Nc1ccc(OC)cc1
inactive

Dear colleague, could you share the recorded outcome for CC1(C)C(=O)Nc2ccccc2N1C(=O)COC(=O)Cn1cnc2ccccc2c1=O when you have a moment?
inactive

// return assay outcome for O=C(Nc1nc(-c2cccnc2)cs1)c1ccccc1F
inactive

Could you kindly confirm the outcome this assay logged for Cc1cc(C)c2nc(-c3ccco3)cc(C(=O)O)c2c1 ?
active

Give the logged outcome of this assay for the following compound: COc1ccc(NC(=O)CSc2nc(NS(=O)(=O)c3ccc(C)cc3)cc(=O)[nH]2)cc1
active

These entries and their values trace back to PubChem BioAssay AID485290.
